Biological target: T1, GFP-9S library array, motif 4 ND N98K;D124L (synthetic construct, N98K;D124L)
T1 chain: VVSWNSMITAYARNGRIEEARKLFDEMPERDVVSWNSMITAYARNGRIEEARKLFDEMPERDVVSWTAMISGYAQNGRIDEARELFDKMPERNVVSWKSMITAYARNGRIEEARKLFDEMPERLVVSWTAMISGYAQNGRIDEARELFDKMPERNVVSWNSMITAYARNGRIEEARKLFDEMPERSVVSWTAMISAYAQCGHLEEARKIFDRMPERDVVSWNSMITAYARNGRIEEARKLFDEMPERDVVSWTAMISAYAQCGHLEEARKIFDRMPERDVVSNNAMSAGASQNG
Assay: high-throughput RNA pulldown from lysate on Ni-NTA beads; HRP: 50 mM Tris pH 8, 150 mM NaCl, 1 mM beta-mercaptoethanol, 50 ug/ml BSA, 3 ug/ml yeast RNA, 0.5% heparin; ITC and FP: Tris pH 8, 200 mM KCl, 5% glycerol; MST: 50 mM Tris pH 8, 200 mM NaCl, 1 mM DTT, BSA, heparin, 0.05% Tween 20
Conditions: tags: N-terminal His-eGFP; label: 5' Cy5
testReadout: pKd
Value format note: pKd is -log10 of concentration (mol/L); just state the number.

{"binder": "AUUAGACGUGA (ssRNA) [Cy5-rpoA-G]", "pKd": 7.13}

Ask | Quick check: pKd of AUUACACGUGA (ssRNA) [Cy5-rpoA] ?
Reply | 7.08
